Below, each of the molecules is paired with its reported inhibition at 1 µM value.
# System: HIV-1
# PROCEDURE TEXT: Inhibitory activity against HIV-1 (literature method, Chen et al. J Virol 1997)
# COND: Human immunodeficiency virus 1, read-out: Anti-HIV (%, 1.0 μM)
Response body: numeric value in %, unit text excluded.

{"MOLECULE": "CCCCC1C=Cc2c3c(c4oc(=O)cc(CCC)c4c2O1)C(=O)C(C)CO3 (stereo not drawn) [Example 77]", "TARGET DESC": "HIV-1", "inhibition at 1 µM [%]": 35.2}

So for CCCc1cc(=O)oc2c3c(c4c(c12)OC(C)(C)C=C4)OC(c1ccc(C)cc1)CC3=O (stereo not drawn) [Example 17] , the logged inhibition at 1 µM turned out to be 57

Record CCCc1c(Cl)c(=O)oc2c3c(c4c(c12)OC(C)C=C4)OC(C)CC3=O (stereo not drawn) [Example 81] , field inhibition at 1 µM: 55.7

The values you see were collected from patent US20100324067A1.
